Target: T1, MipZ K197A (Caulobacter crescentus, UniProt Q9A6C9 1-278, K197A)
T1 sequence: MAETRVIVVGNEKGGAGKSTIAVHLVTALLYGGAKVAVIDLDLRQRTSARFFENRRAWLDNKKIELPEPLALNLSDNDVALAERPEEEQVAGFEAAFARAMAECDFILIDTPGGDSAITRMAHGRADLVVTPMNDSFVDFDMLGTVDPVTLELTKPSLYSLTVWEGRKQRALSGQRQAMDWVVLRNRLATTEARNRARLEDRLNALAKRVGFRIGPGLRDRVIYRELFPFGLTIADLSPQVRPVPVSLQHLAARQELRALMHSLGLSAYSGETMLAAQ
Experiment: MST; low-affinity group, KD >> 10 uM; EMSA: 10 mM HEPES/NaOH pH 7.2, 150 mM NaCl, 10 mM MgCl2, 0.05% Tween 20, 0.46 mM ATPgS, room temp; BLI: 50 mM HEPES/NaOH pH 7.2, 50 mM NaCl, 5 mM MgCl2, 0.1 mM
Conditions: protein: recombinant; tags: C-terminal His6 (pET21a); chain copies: 2; label: Cy3 (5') on strand 1; blunt
pKd: −log10 of the molar value.
PROPERTY NAME: pKd

Which pKd value belongs to rand-Cy3/rand-rev 26 bp (dsDNA) DNA 1: GAGGCAGACTAGATCTTCTAGTTCGG DNA 2: CCGAACTAGAAGATCTAGTCTGCCTC ?
< 5.00
